- Test system: biotinyl-Trp-oxazolone
- Measurement protocol: self-aminoacylation, catalytic enhancement (BWO) (fold over background); higher = more active; k-Seq, kA / k0A0; sequences stand for … in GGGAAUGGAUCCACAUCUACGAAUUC…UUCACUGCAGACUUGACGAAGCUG
This sample holds only a part of the variants without activity.
Classes based on self-aminoacylation: lower (below 1), middle (1 to below 3), upper (3 or more)

Sample answers from the record:
In [3]: df
Out[3]:
                     macromolecule_sequence  class_name
0  AAGUUGGCUAAUAGUCGCAGG [Fam3.1 aminoacylation ribozyme variant]      middle
1  AAGUUUGCUAAAAGCCGCAAG [Fam3.1 aminoacylation ribozyme variant]      middle
2  AAGUUUGGUAUUAGUCGCAAG [Fam3.1 aminoacylation ribozyme variant]      middle

Req: The entry to classify is CUACUUCAAACCAGCGGUCUG [Fam1A.1 aminoacylation ribozyme variant] ; which class holds it?
Resp: lower

Req: Form field 'band' for AUUACGCUGGACAUCGAGUGA [Fam2.1 aminoacylation ribozyme variant]
Resp: upper

Req: Band of CUACUUCAAACAAUCGUUAUG [Fam1A.1 aminoacylation ribozyme variant] ?
Resp: lower

Req: Which category does the recorded self-aminoacylation put ACACACUUCAAGCAUUCGGUC [Fam1B.1 aminoacylation ribozyme variant] in?
Resp: middle

Req: Returns: class label. Input: ACGUUUGCUAAUAGUUGCAAG [Fam3.1 aminoacylation ribozyme variant]
Resp: middle

Req: Which bin should I file CCACAUCAAACAAUCGGUCUG [Fam1A.1 aminoacylation ribozyme variant] under?
Resp: middle

Req: Input CUUCACCUAGGCCAUCGGGUG [Fam2.2 aminoacylation ribozyme variant] ; output its category
Resp: upper

Req: Please let me know in which category the item CUACUUCAAAUAAUCGGUCCG [Fam1A.1 aminoacylation ribozyme variant] belongs.
Resp: middle

Req: Could you tell me which band AUACACCUUGGUCAUCGGGUG [Fam2.2 aminoacylation ribozyme variant] belongs to?
Resp: upper

Req: For the record CUUCACGUAGGUCAUCGGGUG [Fam2.2 aminoacylation ribozyme variant] , report the class its self-aminoacylation corresponds to.
Resp: upper

Req: // bin(item) where item = CCACACUUCAAGCGAUCGCUC [Fam1B.1 aminoacylation ribozyme variant]
Resp: middle

Req: Form field 'band' for AUUUACCUAGGUCAGCGGGUG [Fam2.2 aminoacylation ribozyme variant]
Resp: upper

Req: Dear colleague, I would appreciate it if you could identify the bin for ACACACUUCAAGCAAUCGGAC [Fam1B.1 aminoacylation ribozyme variant] and reply at your convenience.
Resp: middle

Req: Lab log: CCACACAUCCAGCAAUCGGUC [Fam1B.1 aminoacylation ribozyme variant] — assign self-aminoacylation category
Resp: lower

Req: Categorize the following entry: CCACACAUCAAGCCAUCGGUC [Fam1B.1 aminoacylation ribozyme variant]
Resp: lower

Req: Band of AUUCACCUAGGCCCUCGGGUG [Fam2.2 aminoacylation ribozyme variant] ?
Resp: upper

Req: Exercise: read the entry AAGUUUGCUGUUAGUCGCAAG [Fam3.1 aminoacylation ribozyme variant] and state which class it falls under.
Resp: middle

Req: Class for AUUCACCCAGGUCUUCGGGUG [Fam2.2 aminoacylation ribozyme variant] ?
Resp: upper

====

- System: biotinyl-Ile-oxazolone
- Measurement protocol: self-aminoacylation, catalytic enhancement (BIO) (fold over background); higher = more active; k-Seq, kA / k0A0; sequences stand for … in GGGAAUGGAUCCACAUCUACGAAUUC…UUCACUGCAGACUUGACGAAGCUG
Variants at the floor of the assay were thinned out.
Task for the reader: assign each of the following sequences its reported self-aminoacylation.
Numbers only.

Take a look at these entries with their results.
>>> df
                     macromolecule_sequence  endpoint_value
0  AAGUUUGUUAAUAGACGCAAG [Fam3.1 aminoacylation ribozyme variant]           0.583
1  AUUACCCUUGUUAUCGAGUGA [Fam2.1 aminoacylation ribozyme variant]            7.09
2  AUUACCCUGGUAAACGAGUGA [Fam2.1 aminoacylation ribozyme variant]            7.26
3  AUUCACCUAGGUCAUCGUAUG [Fam2.2 aminoacylation ribozyme variant]           0.593

Switching to the query record.
Req: Name the reported self-aminoacylation value associated with the sequence AUUACCCUGGUUACCGAGUGA [Fam2.1 aminoacylation ribozyme variant]
Resp: 5.43

====

- Tested on: biotinyl-Trp-oxazolone
- Measurement protocol: self-aminoacylation, catalytic enhancement (BWO) (fold over background); higher = more active; k-Seq, kA / k0A0; sequences stand for … in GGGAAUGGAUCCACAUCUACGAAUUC…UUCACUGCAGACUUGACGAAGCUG
This sample holds only a part of the variants without activity.
Readout type: self-aminoacylation
Give bare numbers.

>>> print(df.to_string())
                     macromolecule_sequence  endpoint_value
0  AUUCACCUAGCUCAUCGAGUG [Fam2.2 aminoacylation ribozyme variant]           0.394

Each of the following entries comes with a recorded value; kindly state self-aminoacylation for each.
1. AAGUUUGCUAUUAGUCGAAAG [Fam3.1 aminoacylation ribozyme variant]
2. AUUCACCUUUGUCAUCGGGUG [Fam2.2 aminoacylation ribozyme variant]
3. CUACUUCAAUAAAUCGGUCUG [Fam1A.1 aminoacylation ribozyme variant]
4. AUUACGCUGGUCAUCGAGUGC [Fam2.1 aminoacylation ribozyme variant]

Resp:
1. 0.825
2. 4.62
3. 4.71
4. 1.24

====

- System: biotinyl-Val-oxazolone
- Measurement protocol: self-aminoacylation, catalytic enhancement (BVO) (fold over background); higher = more active; k-Seq, kA / k0A0; sequences stand for … in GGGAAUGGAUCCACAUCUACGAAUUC…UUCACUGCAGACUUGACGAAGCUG
Fewer inactive variants are shown than the library holds.
Readout type: self-aminoacylation
Give bare numbers.

>>> df
                     macromolecule_sequence  endpoint_value
0  AUACACCUGGGUCAUCGGGUG [Fam2.2 aminoacylation ribozyme variant]            3.54
1  AUUUCCCUGAUCAUCGAGUGA [Fam2.1 aminoacylation ribozyme variant]            3.27
2  AAGUUUGCUAAUCGUUGCAAG [Fam3.1 aminoacylation ribozyme variant]           0.881
3  GUUGACCUAGGUCAUCGGGUG [Fam2.2 aminoacylation ribozyme variant]            3.67
4  AAGUUGGCUAAUAGUCGCAGG [Fam3.1 aminoacylation ribozyme variant]            1.34
5  CCACAUUUUAAGCAAUCGGUC [Fam1B.1 aminoacylation ribozyme variant]            1.24
6  AUUCACUUAGGUCAUCGGGUG [Fam2.2 aminoacylation ribozyme variant]            3.86
7  CUAGUUCUAACAAUCGGUCUG [Fam1A.1 aminoacylation ribozyme variant]           0.762

// switching to the query sequence
Req: // returns reported self-aminoacylation for input AAGUUUGCUAAUAGUCGAAAG [Fam3.1 aminoacylation ribozyme variant]
Resp: 1.22

====

- Test system: biotinyl-Val-oxazolone
- Measurement protocol: self-aminoacylation, catalytic enhancement (BVO) (fold over background); higher = more active; k-Seq, kA / k0A0; sequences stand for … in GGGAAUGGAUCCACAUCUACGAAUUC…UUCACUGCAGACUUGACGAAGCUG
Variants at the floor of the assay were thinned out.
Readout type: self-aminoacylation
Answers are plain numbers.

>>> print(df.to_string())
                     macromolecule_sequence  endpoint_value
0  AUUACCCUGGUUGUCGAGUGA [Fam2.1 aminoacylation ribozyme variant]            1.33

Can you give me self-aminoacylation for all of these, one by one?
1. AUUACCCUGGUUACCGAGUGA [Fam2.1 aminoacylation ribozyme variant]
2. AGUACCCUUGUCAUCGAGUGA [Fam2.1 aminoacylation ribozyme variant]

Resp:
1. 5.65
2. 3.48

====

- System: biotinyl-Leu-oxazolone
- Measurement protocol: self-aminoacylation, catalytic enhancement (BLO) (fold over background); higher = more active; k-Seq, kA / k0A0; sequences stand for … in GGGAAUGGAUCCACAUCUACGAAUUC…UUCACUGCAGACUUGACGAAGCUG
Variants at the floor of the assay were thinned out.
Please respond with reported self-aminoacylation for every item in the list.
Numbers only.

Solved cases below.
In [3]: df
Out[3]:
                     macromolecule_sequence         readout_type  endpoint_value
0  AAGUUUGGUAACAGUCGCAAG [Fam3.1 aminoacylation ribozyme variant]  self-aminoacylation           0.857
1  AAGUUUCCUAAAAGUCGCAAG [Fam3.1 aminoacylation ribozyme variant]  self-aminoacylation            2.06
2  ACGUUUGCUAAUAGUCUCAAG [Fam3.1 aminoacylation ribozyme variant]  self-aminoacylation            1.02
3  CUUCUUAAAACAAUCGGUCUG [Fam1A.1 aminoacylation ribozyme variant]  self-aminoacylation           0.739
4  AAGUUUUCUAAUAGUCCCAAG [Fam3.1 aminoacylation ribozyme variant]  self-aminoacylation           0.929
5  AUUCACCUAACUCAUCGGGUG [Fam2.2 aminoacylation ribozyme variant]  self-aminoacylation            4.47
6  AUUCACCUACGUCAUAGGGUG [Fam2.2 aminoacylation ribozyme variant]  self-aminoacylation            1.02
7  GUUACCCUGGUGAUCGAGUGA [Fam2.1 aminoacylation ribozyme variant]  self-aminoacylation            7.43

The following sequences each have a reported value; give each one's self-aminoacylation.
1. AUUACCCUGGUCAGCGAGAGA [Fam2.1 aminoacylation ribozyme variant]
2. CGACACUUCAAGCAAUCGAUC [Fam1B.1 aminoacylation ribozyme variant]

Resp:
1: 1.26; 2: 0.611
